Format: in vitro ADME, Mice
Settings: clearance in microsomes
Experimental: The kinetics of compound degradation in liver microsomes is assessed in an assay with 1 µmol/l of compound and 0.5 mg/ml liver microsomes in a medium of 100 mM Tris-HCl pH 7.5, 6.5 mM MgCl2 and 1 mM NADPH at 37 °C. The reaction is stopped at multiple time points by adding acetonitrile. After centrifugation, the compound concentration is measured in the supernatants by high-performance liquid chromatography (HPLC) tandem mass spectrometry (MS/MS). […]
*1 amine or outer side, *2 acyl side, *3 side chain or, on linkers, in order; H or OH if unused. Where a SMILES comes first, the peptide text is derived from it. [ ]: non-standard residue; d: D form. NMeTrp(1-Me) = CN[C@@H](Cc1cn(C)c2ccccc12)C(=O)O; X7 = C=CCn1cc(C[C@H](N[*:1])C(=O)[*:2])c2ccccc21; NMeLeu(5-OH,4R) = CN[C@@H](C[C@@H](C)CO)C(=O)O; Phe(βR-OMe) = CO[C@H](c1ccccc1)[C@H](N)C(=O)O; NMeL = CN[C@@H](CC(C)C)C(=O)O; Pra = C#CC[C@H](N)C(=O)O
Measured Microsomal Stability Mice of individual entries
Measure Name: Microsomal Stability Mice (%Qh)

{"Compound": "CCCCCn1cc(C[C@@H]2NC(=O)[C@H](CC(C)C)N(C)C(=O)[C@H](C(C)C)NC(=O)[C@H]([C@H](OC)c3ccccc3)NC(=O)[C@H](C)NC(=O)[C@H](C[C@@H](C)CO)N(C)C(=O)[C@H](Cc3cn(C)c4ccccc34)N(C)C2=O)nn1", "Relation": "=", "Endpoint Result": 82}
{"Compound": "CO[C@H](c1ccccc1)[C@@H]1NC(=O)[C@H](C)NC(=O)[C@H](C[C@@H](C)CO)N(C)C(=O)[C@H](Cc2cn(C)c3ccccc23)NC(=O)[C@H](Cc2cn(CCOCCOCCn3cc(C[C@@H]4NC(=O)[C@H](CC(C)C)N(C)C(=O)[C@H](C(C)C)NC(=O)[C@H]([C@H](OC)c5ccccc5)NC(=O)[C@H](C)NC(=O)[C@H](C[C@@H](C)CO)N(C)C(=O)[C@H](Cc5cn(C)c6ccccc56)NC4=O)nn3)nn2)NC(=O)[C@H](CC(C)C)N(C)C(=O)[C@H](C(C)C)NC1=O", "Relation": "<", "Endpoint Result": 24}
{"Compound": "C=CCn1cc(C[C@@H]2NC(=O)[C@H](C(C)C)NC(=O)[C@H](CC(C)C)N(C)C(=O)[C@H](C(C)C)NC(=O)[C@H]([C@H](OC)c3ccccc3)NC(=O)[C@H](C)NC(=O)[C@H](C[C@@H](C)CO)N(C)C2=O)c2ccccc21 [Compound 13] (cyclo(A[Phe(βR-OMe)]V[NMeL]V[X7][NMeLeu(5-OH,4R)]))", "Relation": ">", "Endpoint Result": 88}
{"Compound": "C#CC[C@@H]1NC(=O)[C@H](CC(C)C)N(C)C(=O)[C@H](C(C)C)NC(=O)[C@H]([C@H](OC)c2ccccc2)NC(=O)[C@H](C)NC(=O)[C@H](C[C@@H](C)CO)N(C)C(=O)[C@H](Cc2cn(C)c3ccccc23)N(C)C1=O [Compound 20] (cyclo(A[Phe(βR-OMe)]V[NMeL][Pra][NMeTrp(1-Me)][NMeLeu(5-OH,4R)]))", "Relation": ">", "Endpoint Result": 88}
{"Compound": "CO[C@H](c1ccccc1)[C@@H]1NC(=O)[C@H](C)NC(=O)[C@H](C[C@@H](C)CO)N(C)C(=O)[C@H](Cc2cn(Cc3cn(CCCCCn4cc(Cn5cc(C[C@@H]6NC(=O)[C@H](C(C)C)NC(=O)[C@H](CC(C)C)N(C)C(=O)[C@H](C(C)C)NC(=O)[C@H]([C@H](OC)c7ccccc7)NC(=O)[C@H](C)NC(=O)[C@H](C[C@@H](C)CO)N(C)C6=O)c6ccccc65)nn4)nn3)c3ccccc23)NC(=O)[C@H](C(C)C)NC(=O)[C@H](CC(C)C)N(C)C(=O)[C@H](C(C)C)NC1=O", "Relation": "=", "Endpoint Result": 25}

====

experiment: in vitro; conditions: human, Caco-2, Caco-2 permeability P (B-A), basolateral to apical
*1 amine or outer side, *2 acyl side, *3 side chain or, on linkers, in order; H or OH if unused. Where a SMILES comes first, the peptide text is derived from it. [ ]: non-standard residue; d: D form. X1 = C#CCn1cc(C[C@H](N[*:1])C(=O)[*:2])c2ccccc21; NMeLeu(5-OH,4R) = CN[C@@H](C[C@@H](C)CO)C(=O)O; NMeL = CN[C@@H](CC(C)C)C(=O)O

{"Compound": "CO[C@H](c1ccccc1)[C@@H]1NC(=O)[C@H](C)NC(=O)[C@H](C[C@@H](C)CO)N(C)C(=O)[C@H](Cc2cn(C)c3ccccc23)N(C)C(=O)[C@H](Cc2cn(CCCCCn3cc(C[C@@H]4NC(=O)[C@H](CC(C)C)N(C)C(=O)[C@H](C(C)C)NC(=O)[C@H]([C@H](OC)c5ccccc5)NC(=O)[C@H](C)NC(=O)[C@H](C[C@@H](C)CO)N(C)C(=O)[C@H](Cc5cn(C)c6ccccc56)N(C)C4=O)nn3)nn2)NC(=O)[C@H](CC(C)C)N(C)C(=O)[C@H](C(C)C)NC1=O [Compound 22]", "Relation": "=", "Papp B→A (×10⁻⁶ cm/s)": 0.2}
{"Compound": "C#CCn1cc(C[C@@H]2NC(=O)[C@H](C(C)C)NC(=O)[C@H](CC(C)C)N(C)C(=O)[C@H](C(C)C)NC(=O)[C@H](Cc3ccccc3)NC(=O)[C@H](C)NC(=O)[C@H](C[C@@H](C)CO)N(C)C2=O)c2ccccc21 [SI-72] (cyclo(AFV[NMeL]V[X1][NMeLeu(5-OH,4R)]))", "Relation": "=", "Papp B→A (×10⁻⁶ cm/s)": 12.5}
{"Compound": "CO[C@H](c1ccc(OCc2cn(CCCCCn3cc(COc4ccc([C@@H](OC)[C@@H]5NC(=O)[C@H](C)NC(=O)[C@H](C[C@@H](C)CO)N(C)C(=O)[C@H](Cc6cn(C)c7ccccc67)NC(=O)[C@H](C(C)C)NC(=O)[C@H](CC(C)C)N(C)C(=O)[C@H](C(C)C)NC5=O)cc4)nn3)nn2)cc1)[C@@H]1NC(=O)[C@H](C)NC(=O)[C@H](C[C@@H](C)CO)N(C)C(=O)[C@H](Cc2cn(C)c3ccccc23)NC(=O)[C@H](C(C)C)NC(=O)[C@H](CC(C)C)N(C)C(=O)[C@H](C(C)C)NC1=O [SI-40]", "Relation": "<", "Papp B→A (×10⁻⁶ cm/s)": 0.7}

====

system: Staphylococcus aureus; assay: MIC ESKAPES panel, Staphylococcus aureus; assay type: cell-based; conditions: Staphylococcus aureus; Gram-Positive Bacteria; replicates 1-3
*1 amine or outer side, *2 acyl side, *3 side chain or, on linkers, in order; H or OH if unused. Where a SMILES comes first, the peptide text is derived from it. [ ]: non-standard residue; d: D form. X1 = C#CCn1cc(C[C@H](N[*:1])C(=O)[*:2])c2ccccc21; NMeLeu(5-OH,4R) = CN[C@@H](C[C@@H](C)CO)C(=O)O; Phe(βR-OMe) = CO[C@H](c1ccccc1)[C@H](N)C(=O)O; Trp(1-Me) = Cn1cc(C[C@H](N)C(=O)O)c2ccccc21; NMeL = CN[C@@H](CC(C)C)C(=O)O; Pra = C#CC[C@H](N)C(=O)O
Measured MIC of individual entries

{"Compound": "C#CC[C@@H]1NC(=O)[C@H](CC(C)C)N(C)C(=O)[C@H](C(C)C)NC(=O)[C@H]([C@H](OC)c2ccccc2)NC(=O)[C@H](C)NC(=O)[C@H](C[C@@H](C)CO)N(C)C(=O)[C@H](Cc2cn(C)c3ccccc23)NC1=O [Compound 10] (cyclo(A[Phe(βR-OMe)]V[NMeL][Pra][Trp(1-Me)][NMeLeu(5-OH,4R)]))", "MIC": "> 45.6 µg/mL"}
{"Compound": "COC(c1ccccc1)C1NC(=O)C(C)NC(=O)C(CC(C)CO)N(C)C(=O)C(Cc2cn(Cc3cn(CCOCCOCCOCCOCCn4cc(Cn5cc(CC6NC(=O)C(C(C)C)NC(=O)C(CC(C)C)N(C)C(=O)C(C(C)C)NC(=O)C(C(OC)c7ccccc7)NC(=O)C(C)NC(=O)C(CC(C)CO)N(C)C6=O)c6ccccc65)nn4)nn3)c3ccccc23)NC(=O)C(C(C)C)NC(=O)C(CC(C)C)N(C)C(=O)C(C(C)C)NC1=O (stereo not drawn) [Compound 8]", "MIC": "> 109 µg/mL"}
{"Compound": "C#CCn1cc(C[C@@H]2NC(=O)[C@H](C(C)C)NC(=O)[C@H](CC(C)C)N(C)C(=O)[C@H](C(C)C)NC(=O)[C@H]([C@H](OC)c3ccccc3)NC(=O)[C@H](C)NC(=O)[C@H](C[C@@H](C)CO)N(C)C2=O)c2ccccc21 [Compound 5] (cyclo(A[Phe(βR-OMe)]V[NMeL]V[X1][NMeLeu(5-OH,4R)]))", "MIC": "> 47 µg/mL"}
